- assay details: Half life was determined in rat after an intravenous dose of 1 mg/kg
- Type: ADME, organism-based
- Design: dose 1 mg/kg, route intravenous
- assay conditions: in vivo
result type: half-life (min)

molecule	result type	quantitative readout
CN[C@H](Cc1ccccc1)C(=O)N1CCC[C@H]1C(=O)NC(CCCN=C(N)N)C(=O)c1nc2ccc(C(=O)O)cc2s1 (stereo partly specified)	half-life	25

* * *

- study target: Serine protease 1 (Bos taurus, UniProt P00760)
- assay details: Binding affinity against bovine trypsin
satisfied if Ki is below 0.03 µM. not satisfied if not; exact matches included in not satisfied.

compound	assigned label
CN[C@H](Cc1ccccc1)C(=O)N1CCC[C@H]1C(=O)NC(CCCN=C(N)N)C(=O)c1nc2ccc(C(=O)OC)cc2s1 (stereo partly drawn)	not satisfied
CN[C@@H](C(=O)N1CCC[C@H]1C(=O)NC(CCCN=C(N)N)C(=O)c1nc2ccccc2s1)C1CCCCC1 (stereo partly drawn)	satisfied
CN[C@H](Cc1ccccc1)C(=O)N1CCC[C@H]1C(=O)N[C@@H](CCCN=C(N)N)C(O)c1nc2ccccc2s1 (stereo in doubt; form 2)	not satisfied
CN[C@H](Cc1ccccc1)C(=O)N1CCC[C@H]1C(=O)NC(C(=O)c1nc2ccccc2s1)C1CCC(N)CC1 (stereo partly drawn)	not satisfied
CN[C@H](Cc1ccccc1)C(=O)N1CCCC[C@H]1C(=O)NC(CCCN=C(N)N)C(=O)c1nc2ccccc2s1 (stereo partly drawn)	satisfied
CN[C@H](Cc1ccccc1)C(=O)N1CCC[C@H]1C(=O)NC(CCCN=C(N)N)C(=O)c1cc2ccccc2s1 (stereo partly drawn)	not satisfied
CN[C@H](Cc1ccccc1)C(=O)N1CCC[C@H]1C(=O)NC(CCCN=C(N)N)C(=O)c1nc2ccccc2[nH]1 (stereo partly drawn)	satisfied

* * *

- study target: Prothrombin (Homo sapiens, UniProt P00734)
- assay details: Inhibitory concentration against human alpha thrombin
pIC50: −log10 of the molar value.
Classification field: enter t for pIC50 values not below 6, f for values below it.

compound	assigned label
CN[C@H](Cc1ccccc1)C(=O)N1CCC[C@H]1C(=O)N[C@@H](CCCN=C(N)N)C(=O)c1nc2ccccc2s1	t
CN[C@H](Cc1c(F)c(F)c(F)c(F)c1F)C(=O)N1CCC[C@H]1C(=O)NC(CCCN=C(N)N)C(=O)c1nc2ccccc2s1 (stereo partly specified)	t
CN[C@H](Cc1ccccc1)C(=O)N1CCC[C@H]1C(=O)N[C@@H](CCCOC)C(=O)c1nc2ccccc2s1	f
CN[C@H](Cc1ccccc1)C(=O)N1CCC[C@H]1C(=O)N[C@H](Cc1cccc(C(=N)N)c1)C(=O)c1nc2ccccc2s1	t
CN[C@H](Cc1ccccc1)C(=O)N1CCC[C@H]1C(=O)NC(CCCN=C(N)N)C(=O)c1nc2ccccc2n1C (stereo partly specified)	t
CN[C@H](Cc1ccccc1)C(=O)N1CCC[C@H]1C(=O)N[C@@H](CCCN=C(N)N)C(O)c1nc2ccccc2s1 (stereo in doubt; form 2)	f
CN[C@H](Cc1ccccc1)C(=O)N1CCC[C@H]1C(=O)NC(CCCN=C(N)N)C(=O)c1nc2ccc3ccccc3c2s1 (stereo partly specified)	t
CN[C@H](Cc1ccccc1)C(=O)N1CCC[C@H]1C(=O)N(C)[C@@H](CCCN=C(N)N)C(=O)c1nc2ccccc2s1	f
CN[C@H](Cc1ccccc1)C(=O)N1CCC[C@H]1C(=O)N[C@@](C)(CCCN=C(N)N)C(=O)c1nc2ccccc2s1	f
CN[C@H](Cc1ccccc1)C(=O)N1CCC[C@H]1C(=O)N[C@@H](CCCCN)C(=O)c1nc2ccccc2s1	t
CN[C@H](Cc1ccccc1)C(=O)N[C@H](C(=O)NC(CCCN=C(N)N)C(=O)c1nc2ccccc2s1)C(C)C (stereo partly specified)	t
CN[C@H](Cc1ccccc1)C(=O)N1CCCC[C@H]1C(=O)NC(CCCN=C(N)N)C(=O)c1nc2ccccc2s1 (stereo partly specified)	t
CN[C@H](Cc1ccccc1)C(=O)N1CCC[C@H]1C(=O)N[C@H](C=O)CCCNC(=N)N (stereo in doubt; 1b)	t
CN[C@H](Cc1ccccc1)C(=O)N1CCC[C@H]1C(=O)NC(CCCN=C(N)N)C(=O)c1nc2c(s1)CCCC2 (stereo partly specified)	t

* * *

- study target: UniProt P00734
- assay details: Binding affinity determined against human alpha thrombin
Entries are grouped by Ki into these classes: small value (below 4 nM), mid value (4 nM to below 400 nM), large value (400 nM or more)

compound	assigned label
N=C(N)NCCCC(NC(=O)[C@@H]1CCCN1C(=O)CC(c1ccccc1)c1ccccc1)C(=O)c1nc2ccccc2s1 (some centres not stated)	small value
CNCCCC[C@H](NC(=O)[C@@H]1CCCN1C(=O)[C@@H](Cc1ccccc1)NC)C(=O)c1nc2ccccc2s1	large value
CN[C@H](Cc1ccccc1)C(=O)N1CCC[C@H]1C(=O)NC(CCCN=C(N)N)C(=O)c1nc2ccccc2o1 (some centres not stated)	mid value
CCS(=O)(=O)N[C@H](Cc1ccccc1)C(=O)N1CCC[C@H]1C(=O)NC(CCCN=C(N)N)C(=O)c1nc2ccccc2s1 (some centres not stated)	mid value
CN[C@H](Cc1ccccc1)C(=O)N1CCC[C@H]1C(=O)N[C@H](C=O)CCCNC(=N)N (stereo in doubt; 1b)	mid value
N=C(N)NCCC[C@H](NC(=O)[C@@H]1CCCN1C(=O)[C@H](CO)NS(=O)(=O)c1cccc2ccccc12)C(=O)c1nc2ccccc2s1	small value
CN[C@H](Cc1ccccc1)C(=O)N1CCC[C@H]1C(=O)NC(CCCN=C(N)N)C(=O)c1nc(C(=O)NCCc2ccccc2)cs1 (some centres not stated)	mid value
CS(=O)(=O)CC[C@H](NS(=O)(=O)Cc1ccccc1)C(=O)N1CCC[C@H]1C(=O)N[C@@H](CCCNC(=N)N)C(=O)c1nc2ccccc2s1	small value
CN[C@H](Cc1ccccc1)C(=O)N1CCC[C@H]1C(=O)N[C@@H](CCCOC)C(=O)c1nc2ccccc2s1	large value
CCOC(=O)c1csc(C(=O)C(CCCN=C(N)N)NC(=O)[C@@H]2CCCN2C(=O)[C@@H](Cc2ccccc2)NC)n1 (some centres not stated)	mid value
CN[C@H](Cc1ccccc1)C(=O)N1CCC[C@H]1C(=O)N[C@H](C[C@H]1CCCN(C(=N)N)C1)C(=O)c1nc2ccccc2s1	mid value

* * *

- assay details: Oral half life was determined in conscious rat after 10 mg/kg dosage through gavage
- Type: ADME, organism-based
- Parameters: dose 10 mg/kg
- assay conditions: in vivo
result type: half-life (h)

compound	result type	quantitative readout
CN[C@H](Cc1ccccc1)C(=O)N1CCC[C@H]1C(=O)NC(CCCN=C(N)N)C(=O)c1nc2ccc(C(=O)O)cc2s1 (stereo partly specified)	half-life	1

* * *

- study target: Serine protease 1 (Bos taurus, UniProt P00760)
- assay details: Binding affinity against bovine trypsin
pKi: −log10 of the molar value.
Classification field: enter 1.0 for pKi values not below 8, 0.0 for values below it.

molecule	assigned label
CN[C@H](Cc1ccccc1)C(=O)N1CCC[C@H]1C(=O)NC(CCCN=C(N)N)C(=O)c1nc2ccc(F)cc2s1 (stereo partly drawn)	1.0
CN[C@H](Cc1ccccc1)C(=O)N1CCC[C@H]1C(=O)NC(CCCN=C(N)N)C(=O)c1nc2c(s1)CCCC2 (stereo partly drawn)	1.0
CN[C@H](Cc1ccccc1)C(=O)N1CCC[C@H]1C(=O)NC(CCCN=C(N)N)C(=O)c1nc(C(=O)NCCc2ccccc2)cs1 (stereo partly drawn)	1.0
CN[C@H](Cc1ccccc1)C(=O)N1CCC[C@H]1C(=O)N[C@@H](CCCNC(=N)N)C(=O)c1nccs1	1.0
CN[C@H](Cc1ccccc1)C(=O)N1CCC[C@H]1C(=O)N(C)[C@@H](CCCN=C(N)N)C(=O)c1nc2ccccc2s1	0.0
CN[C@H](Cc1ccccc1)C(=O)N1CCC[C@H]1C(=O)N[C@H](CCCCN)C(=O)c1nc2ccccc2s1	0.0
CNCCCC[C@H](NC(=O)[C@@H]1CCCN1C(=O)[C@@H](Cc1ccccc1)NC)C(=O)c1nc2ccccc2s1	0.0

* * *

- study target: Serine protease 1 (Bos taurus)
- Sequence (P00760 whole entry): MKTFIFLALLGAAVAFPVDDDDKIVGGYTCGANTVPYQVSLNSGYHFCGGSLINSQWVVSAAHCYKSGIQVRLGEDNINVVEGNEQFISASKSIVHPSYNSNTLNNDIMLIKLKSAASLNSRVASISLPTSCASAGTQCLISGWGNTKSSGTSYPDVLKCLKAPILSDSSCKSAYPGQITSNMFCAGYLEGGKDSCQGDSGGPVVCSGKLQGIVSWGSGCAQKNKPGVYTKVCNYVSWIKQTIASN
- assay details: Inhibitory concentration against bovine trypsin; ND=Not determined
Item-by-item account of IC50

compound structure	IC50
CN[C@H](Cc1ccccc1)C(=O)N1CCC[C@H]1C(=O)N[C@H](CC(=O)c1nc2ccccc2s1)[C@H]1CC[C@H](N)CC1	58 µM
CN[C@H](Cc1ccccc1)C(=O)N1CCC[C@H]1C(=O)N[C@@H](CC(=O)c1nc2ccccc2s1)[C@H]1CC[C@H](N)CC1	22 µM
